Can you tell me IC50 for the items I'm about to list?
Target: human mGlu5 (Homo sapiens, UniProt P41594)
Construct: expressed in transfected cells
Sequence (P41594 21-1212): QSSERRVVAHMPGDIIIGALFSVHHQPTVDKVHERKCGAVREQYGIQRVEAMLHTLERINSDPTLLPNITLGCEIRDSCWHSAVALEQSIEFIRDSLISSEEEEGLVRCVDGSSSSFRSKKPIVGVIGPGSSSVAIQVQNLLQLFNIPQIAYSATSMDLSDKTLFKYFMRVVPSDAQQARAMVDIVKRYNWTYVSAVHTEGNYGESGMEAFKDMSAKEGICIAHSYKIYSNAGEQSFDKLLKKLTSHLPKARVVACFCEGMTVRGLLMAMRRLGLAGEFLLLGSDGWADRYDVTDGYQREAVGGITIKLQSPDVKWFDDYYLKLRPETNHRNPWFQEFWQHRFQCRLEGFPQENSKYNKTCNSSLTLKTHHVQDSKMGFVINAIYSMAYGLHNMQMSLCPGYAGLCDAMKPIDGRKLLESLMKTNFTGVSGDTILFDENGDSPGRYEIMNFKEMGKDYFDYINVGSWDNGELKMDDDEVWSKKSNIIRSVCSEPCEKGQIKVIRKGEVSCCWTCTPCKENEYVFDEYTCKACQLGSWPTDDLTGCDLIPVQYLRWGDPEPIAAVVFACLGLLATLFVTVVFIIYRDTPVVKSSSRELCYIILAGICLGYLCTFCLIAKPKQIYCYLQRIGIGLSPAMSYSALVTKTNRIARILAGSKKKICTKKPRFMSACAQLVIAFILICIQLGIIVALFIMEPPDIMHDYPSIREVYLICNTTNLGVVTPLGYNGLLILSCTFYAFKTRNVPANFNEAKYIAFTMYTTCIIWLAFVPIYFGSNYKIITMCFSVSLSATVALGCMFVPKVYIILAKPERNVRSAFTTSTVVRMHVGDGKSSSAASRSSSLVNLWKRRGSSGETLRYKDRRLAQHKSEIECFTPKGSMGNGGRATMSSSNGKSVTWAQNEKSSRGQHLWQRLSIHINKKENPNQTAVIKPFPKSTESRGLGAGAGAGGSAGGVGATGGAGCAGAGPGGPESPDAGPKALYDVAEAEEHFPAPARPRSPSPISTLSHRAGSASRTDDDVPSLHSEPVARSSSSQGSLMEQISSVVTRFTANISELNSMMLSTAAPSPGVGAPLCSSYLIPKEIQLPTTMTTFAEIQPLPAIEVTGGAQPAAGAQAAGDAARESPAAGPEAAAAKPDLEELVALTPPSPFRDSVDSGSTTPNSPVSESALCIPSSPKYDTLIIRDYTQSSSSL
Test: Calcium mobilization assay in human mGlu5-HEK293A cells (NAM, EC80 glutamate)
Assay type: cell-based
Settings: human mGlu5-HEK293A cells, EC80 fixed concentration of glutamate; read-out: hmGlu5 IC50
Form entry: value (nM) — number only.

Looking for the measured IC50 of Cc1csc(NC(=O)c2cc(Oc3cnn(C)c3)c(C(F)(F)F)cn2)n1 [24B] , can you help?
2820

Looking for the measured IC50 of Cc1cccc(NC(=O)c2cc(Oc3cnn(C)c3)c(C(F)(F)F)cn2)n1 [24C] , can you help?
1330

Looking for the measured IC50 of Cc1cccc(NC(=O)c2cc(Oc3c(C)nn(C)c3C)cc(C)n2)n1 [22aC] , can you help?
2840

Looking for the measured IC50 of Cc1cc(Oc2cnn(C)c2C(F)(F)F)cc(C(=O)Nc2nc(C)cs2)n1 [22gB] , can you help?
26

Looking for the measured IC50 of Cc1cc(Oc2cc(C)n(C)n2)cc(C(=O)Nc2nc(C)cs2)n1 [22eB] , can you help?
1720

====

Experiment: In vivo rat pharmacokinetics
Design: species or system Sprague–Dawley rat
Conditions: Sprague-Dawley, rat, plasma, po, 10 mg/kg
MEASUREMENT_NAME: bioavailability (%)
Form entry: value (%) — number only.

Looking for the measured bioavailability of Cc1cc(Oc2cnn(C)c2)cc(C(=O)Nc2ccc(F)cn2)n1 [22iA] , can you help?
40

====

Assay: Binding in brain homogenate from rat (equilibrium dialysis)
Format: in vitro ADME
Settings: rat, brain homogenate, rat brain homogenates, read-out: Rat fu,brain
Can you tell me fraction unbound at 6 h, 1 µM for the items I'm about to list?
Give the figure only, with no unit attached.

Looking for the measured fraction unbound at 6 h, 1 µM of Cc1cc(Oc2ccnn2C)cc(C(=O)Nc2nc(C)cs2)n1 [22hB] , can you help?
0.029

Looking for the measured fraction unbound at 6 h, 1 µM of Cc1cc(Oc2cnn(C)c2)cc(C(=O)Nc2nc(C)cs2)n1 [22iB] , can you help?
0.014

Looking for the measured fraction unbound at 6 h, 1 µM of Cc1cccc(NC(=O)c2cc(Oc3cnn(C)c3)cc(C)n2)n1 [22iC] , can you help?
0.013

Looking for the measured fraction unbound at 6 h, 1 µM of Cc1cc(Oc2cnn(C)c2)cc(C(=O)Nc2ccc(F)cn2)n1 [22iA] , can you help?
0.012

Looking for the measured fraction unbound at 6 h, 1 µM of Cc1cccc(NC(=O)c2cc(Oc3ccnn3C)cc(C)n2)n1 [22hC] , can you help?
0.021

Looking for the measured fraction unbound at 6 h, 1 µM of Cc1cccc(NC(=O)c2cc(Oc3cnn(C)c3C(F)(F)F)cc(C)n2)n1 [22gC] , can you help?
0.005

====

Target: human mGlu5 (Homo sapiens)
Construct: expressed in transfected cells
Assay: Calcium mobilization assay in human mGlu5-HEK293A cells (NAM, EC80 glutamate)
Assay type: cell-based
Conditions: human mGlu5-HEK293A cells, EC80 fixed concentration of glutamate, n = 2 in triplicate
Can you tell me pIC50 for the items I'm about to list?
Give the figure only, with no unit attached.

What is its pIC50 for human mGlu5 (Homo sapiens)? Entry: Cc1cccc(NC(=O)c2cc(Oc3ncn(C)n3)cc(C)n2)n1 [22dC]
6.00

What is its pIC50 for human mGlu5 (Homo sapiens)? Entry: Cc1cc(Oc2ccnn2C)cc(C(=O)Nc2nc(C)cs2)n1 [22hB]
7.02

What is its pIC50 for human mGlu5 (Homo sapiens)? Entry: Cc1csc(NC(=O)c2cc(Oc3cnn(C)c3)c(C(F)(F)F)cn2)n1 [24B]
5.55

What is its pIC50 for human mGlu5 (Homo sapiens)? Entry: Cc1cc(Oc2cnn(C)c2C(F)(F)F)cc(C(=O)Nc2nc(C)cs2)n1 [22gB]
7.58

What is its pIC50 for human mGlu5 (Homo sapiens)? Entry: Cc1cccc(NC(=O)c2cc(Oc3cnn(C)c3)cc(C)n2)n1 [22iC]
7.38

What is its pIC50 for human mGlu5 (Homo sapiens)? Entry: Cc1cccc(NC(=O)c2cc(Oc3cc(C)nn3C)cc(C)n2)n1 [22fC]
6.69

What is its pIC50 for human mGlu5 (Homo sapiens)? Entry: Cc1cccc(NC(=O)c2cc(Oc3ccnn3C)cc(C)n2)n1 [22hC]
7.04
